Test system: human dermal papilla cells
method.notes: Promotion of proliferation of human dermal papilla cells (CellTiter-Glo Luminescent cell viability assay)
Type: cell-based
condition.summary: human dermal papilla cells (ScienCell, 2499); drug 0 to 30 μM; 48 hours; CellTiter-Glo luminescence; compared to DMSO-treated control group
Give criterion met when the value for Maximum DP cell proliferation (%) is at least 7%. Give criterion not met when it is less.

[in] Does the compound `Nc1n[nH]c2nc(Nc3ccc(F)c(C(F)(F)F)c3F)c(F)cc12` have recorded Maximum DP cell proliferation (%) that is 7% or more?
[out] criterion not met

[in] Test whether the compound `Nc1n[nH]c2nc(Nc3cccc4c3CCC4)ccc12` records Maximum DP cell proliferation (%) of 7% or higher.
[out] criterion not met

[in] Does `Cc1c(Cl)cccc1Nc1nc2[nH]nc(N)c2cc1F` have a reported Maximum DP cell proliferation (%) of at least 7%?
[out] criterion met

[in] Decide: Maximum DP cell proliferation (%) of `Nc1n[nH]c2nc(Nc3cccc(C(F)(F)F)c3F)c(F)cc12` >= 7%?
[out] criterion met

[in] Does the reported Maximum DP cell proliferation (%) for `Nc1n[nH]c2nc(Nc3cc(O)cc4c3CCC4)c(F)cc12` fall at or above the 7% mark?
[out] criterion met

[in] Given `Nc1n[nH]c2nc(Nc3cccc4c3CCC4)ncc12` , state whether its Maximum DP cell proliferation (%) is at least 7%.
[out] criterion not met

[in] # check: Maximum DP cell proliferation (%) of `Cc1c(F)cccc1Nc1nc2[nH]nc(N)c2cc1F` is greater than or equal to 7%
[out] criterion met

[in] Determine whether this compound has Maximum DP cell proliferation (%) no lower than 7%: `Nc1n[nH]c2nc(Nc3cccc(C(F)(F)F)c3F)ccc12`
[out] criterion met

[in] Decide: is the reported value of Maximum DP cell proliferation (%) for `Nc1n[nH]c2nc(Nc3cccc(C(F)(F)F)c3Cl)c(F)cc12` equal to or greater than 7%?
[out] criterion met

[in] Check if Maximum DP cell proliferation (%) >= 7% (inclusive). Item: `CC(C)(C)c1cccc(Nc2nc3[nH]nc(N)c3cc2F)c1`
[out] criterion met
